# target: Coagulation factor X (Homo sapiens)
# Sequence (P00742 41-179 limits assumed): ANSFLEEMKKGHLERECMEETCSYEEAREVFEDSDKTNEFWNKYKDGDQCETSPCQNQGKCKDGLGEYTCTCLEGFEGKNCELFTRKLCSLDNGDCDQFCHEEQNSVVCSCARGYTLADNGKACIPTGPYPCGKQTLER
# Sequence (P00742 235-488 limits assumed): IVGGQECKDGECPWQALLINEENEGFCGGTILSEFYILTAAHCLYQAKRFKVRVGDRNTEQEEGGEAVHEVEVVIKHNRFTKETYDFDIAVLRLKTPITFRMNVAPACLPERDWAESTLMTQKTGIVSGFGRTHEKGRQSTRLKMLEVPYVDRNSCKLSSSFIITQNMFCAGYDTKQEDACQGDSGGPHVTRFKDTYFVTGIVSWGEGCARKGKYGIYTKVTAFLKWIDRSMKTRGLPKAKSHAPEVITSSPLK

item smiles | unit symbol | readout qualifier | IC50
O=c1oc(-c2ccccc2F)nc2ncccc12 | µM | = | 32
CCSc1ncc2c(=O)oc(-c3ccccc3F)nc2n1 | µM | > | 200
O=c1oc(-c2c(F)cccc2F)nc2cnccc12 | µM | > | 200
O=c1oc(-c2c(F)cccc2F)nc2cc([N+](=O)[O-])ccc12 | µM | = | 112
Cc1ccccc1-c1nc2c(cnn2C)c(=O)o1 | µM | > | 200
O=c1oc(-c2ccccc2F)nc2cnccc12 | µM | = | 90
O=c1oc(-c2c(F)cccc2F)nc2cc(C(F)(F)F)ccc12 | µM | = | 174

###

The following are reported IC50 results, target or system Prothrombin (Homo sapiens).

item smiles | IC50
O=c1oc(-c2c(F)cccc2F)nc2cnccc12 | > 200 µM
O=c1oc(-c2c(F)cccc2F)nc2cc([N+](=O)[O-])ccc12 | > 200 µM
O=c1oc(-c2ccccc2F)nc2ncccc12 | 14.4 µM
CCSc1ncc2c(=O)oc(-c3ccccc3F)nc2n1 | > 200 µM
O=c1oc(-c2c(F)cccc2F)nc2cc(C(F)(F)F)ccc12 | 134 µM
Cc1ccccc1-c1nc2c(cnn2C)c(=O)o1 | 129 µM

###

In this section, each of the compounds is paired with its reported Ki.
# target: Trypsin (Homo sapiens, UniProt P07477+P07478+P35030)
# Type: protein assay
# Description: Inhibition of trypsin (unknown origin)
assay readout: Ki (µM)

compound | assay readout | value observed
Cc1nc(N)ccc1CNC(=O)Cn1c(C)cnc(NCC(F)(F)c2ccccn2)c1=O | Ki | 0.8
N#Cc1cnc(NCC(F)(F)c2ccccn2)c(=O)n1CC(=O)NCc1ncccc1F | Ki | 213
Cc1cnc(NCC(F)(F)c2ccccn2)c(=O)n1CC(=O)NCc1ncccc1F | Ki | 252
O=C(Cn1c(Cl)cnc(NCC(F)(F)c2ccccn2)c1=O)NCc1ncccc1F [DPOC-4088] | Ki | 202

###

# target: Coagulation factor VII/tissue factor (Homo sapiens, UniProt P08709)
# Sequence (P08709 61-212 limits assumed): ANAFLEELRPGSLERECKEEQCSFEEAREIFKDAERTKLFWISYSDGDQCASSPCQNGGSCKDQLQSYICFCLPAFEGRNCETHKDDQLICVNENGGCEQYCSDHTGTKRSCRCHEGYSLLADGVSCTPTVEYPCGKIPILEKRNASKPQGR
# Sequence (P08709 213-466 limits assumed): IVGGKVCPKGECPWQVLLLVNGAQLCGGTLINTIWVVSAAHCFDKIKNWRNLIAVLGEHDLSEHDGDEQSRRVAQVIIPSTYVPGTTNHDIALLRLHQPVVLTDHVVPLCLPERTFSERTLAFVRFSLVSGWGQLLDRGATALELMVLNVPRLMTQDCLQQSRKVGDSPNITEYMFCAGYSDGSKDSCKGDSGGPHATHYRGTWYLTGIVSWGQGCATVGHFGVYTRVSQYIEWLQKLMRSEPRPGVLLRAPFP
# Sequence (P13726 33-295 partner limits assumed): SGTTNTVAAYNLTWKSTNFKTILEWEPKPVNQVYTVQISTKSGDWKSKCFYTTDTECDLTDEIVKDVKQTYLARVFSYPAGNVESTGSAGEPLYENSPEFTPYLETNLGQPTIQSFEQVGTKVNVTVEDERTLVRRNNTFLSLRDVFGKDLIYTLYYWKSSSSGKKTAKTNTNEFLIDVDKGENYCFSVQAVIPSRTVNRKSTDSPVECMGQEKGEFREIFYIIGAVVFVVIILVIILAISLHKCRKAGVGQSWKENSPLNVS
# Assay type: protein-complex assay
// returns FALSE unless IC50 is strictly below 3000 nM, in which case TRUE

item smiles | answer label
CCSc1ncc2c(=O)oc(-c3ccccc3F)nc2n1 | FALSE
O=c1oc(-c2c(F)cccc2F)nc2cnccc12 | TRUE
Cc1ccccc1-c1nc2c(cnn2C)c(=O)o1 | FALSE
O=c1oc(-c2c(F)cccc2F)nc2cc([N+](=O)[O-])ccc12 | TRUE
O=c1oc(-c2ccccc2F)nc2cnccc12 | TRUE
O=c1oc(-c2ccccc2F)nc2ncccc12 | TRUE
O=c1oc(-c2c(F)cccc2F)nc2cc(C(F)(F)F)ccc12 | TRUE
O=c1oc(-c2ccccc2F)nc2nccnc12 | FALSE

###

# target: Prothrombin (Homo sapiens, UniProt P00734)
assay readout: IC50 (µM)

item smiles | value observed
N=C(N)NCCC[C@H](NC(=O)[C@H](Cc1cccnc1)NC(=O)[C@H](Cc1ccccc1)NS(=O)(=O)c1ccccc1)C(=O)c1nccs1 | 100

###

# assay details: in vivo
# test parameters: dog, po, 1 mg/kg
# Description: Half life in dog at 1 mg/kg, po
assay readout: half-life

item smiles | value observed
O=C(Cn1c(Cl)cnc(NCC(F)(F)c2ccccn2)c1=O)NCc1ncccc1F | 396 to 582 min
N#Cc1cnc(NCC(F)(F)c2ccccn2)c(=O)n1CC(=O)NCc1ncccc1F | 396 to 582 min
